Assay: chemical genetic growth profiling, strain panel (AID 1159580);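 also: tested at 20 µM; growth read once vehicle control cultures reached saturation at 30 °C; 1 = growth at the plate median or of vehicle wells; lower values mean less growth of the strain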
Conditions: S. cerevisiae deletion strains, growth OD, locus YGR052W, strain FMP48
The campaign covered roughly 5,500 compounds. About 2,000 (36%) were called active. Roughly 18% stayed inconclusive and do not appear here. Rule as the data show it: active = normalized growth mostly below about 0.91 (no sharp cut-off); inconclusive = no clear call, values can overlap the other calls; inactive = mostly above about 0.92. The list shows a part of the results.
Classes used: active, inactive

Compound	Class name
CCOC(=O)c1cnc2c(c(C)nn2C)c1Sc1nnc(SC)s1	inactive
CN1c2ccccc2C(C)(C)C12C=Cc1cc(O)ccc1O2 (centres undefined)	inactive
Cn1nc(-c2ccccc2)c(O)c(N=Nc2ccccc2)c1=O	inactive
O=C(Nc1cccnc1)c1cc2c(s1)-c1ccccc1CC2	active

----------
Listed here: items and their measured normalized growth.
Assay: chemical genetic growth profiling, strain panel (AID 1159580);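 also: tested at 20 µM; growth read once vehicle control cultures reached saturation at 30 °C; 1 = growth at the plate median or of vehicle wells; lower values mean less growth of the strain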
Details: S. cerevisiae deletion strains, growth OD, strain wtn01, active compounds read low
In all, about 5,500 compounds went through this assay and about 2,000 (36%) were called active. Inconclusive results (about 18%) are left out. The list shows a part of the results.
Value type: normalized growth

Molecule	Experimental result
CC(=O)Oc1cc2c(c(C)c1OC(C)=O)CC1OC13C2(C)CCC1(C)C2CC(C)(C(=O)O)CCC2(C)CCC13C (configuration not stated)	1.01 (inactive)
C=C(C)[C@H]1Cc2c(ccc3c2O[C@@H]2COc4cc(OC)c(OC)cc4[C@@H]2C3=O)O1	1.03 (inactive)
NCCc1c[nH]c2ccccc12	1.02 (inactive)
CCNc1nc(Cl)nc(NCC)n1	1.01 (inactive)
CC1(C)S[C@@H]2[C@H](NC(=O)Cc3ccccc3)C(=O)N2[C@H]1C(=O)O	1.01 (inactive)
O=C1c2ccccc2C(=O)C1c1ccccc1	1.01 (inactive)
COc1ccc([C@H]2COc3c(ccc(O)c3OC)C2)c(OC)c1O	0.981 (inactive)
